Assignment: determine reported yeast fitness for the given variants.
B1: tRNA (parent)
chain: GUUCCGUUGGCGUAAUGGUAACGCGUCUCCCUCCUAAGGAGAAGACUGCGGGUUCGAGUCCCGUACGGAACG

# Variants of: B1
# measurement.protocol: yeast fitness relative to wild type (ratio to wild type); higher = fitter; tRNA-Arg(CCU), competitive growth, 37 C, YPD
This sample holds only a part of the variants without activity.
The response must contain the number and no unit.

Incoming: # input variant: GGUCCGUUGGCGUAUUGGUAACGCGUCUCCCUCCUAAGGAGAAGACUGCGGGUUCGAGUCCCGUACGGAACG [U2G A15U] ; wanted: its yeast fitness
Outgoing: 0.75

Incoming: Record request: yeast fitness value, item GUUCCGUUGGCGUAAUGGUAACGAGUCUCCCUCCUAAGGAGAAGGCUGCGGGUUCGAGUCCCGUUCGGAACG [C24A A45G A65U]
Outgoing: 0.552

Incoming: yeast fitness for GUUCCGUUGGCGUAAUGGUAACGCGUCACCCUCCUCAGGAGAAGACUGCGGGUUCGAGUCCCGUACGGAACG [U28A A36C] ?
Outgoing: 0.511

Incoming: Reported yeast fitness, variant GAUCCGUUGGCGUAAUGGUAACGCCUCUCCCUCCUAAGGAGAAGUCUGCGGGUUCGAGUCCCGUACGGAACG [U2A G25C A45U] : ____
Outgoing: 0.585

Incoming: // query yeast fitness value for entry GUUCCGUUGGCGUAAUGGUAACGCGUCUCCCUCCUAAGGAGAAGACUACGGGUUCAAGUCCCGUGCGGAACG [G48A G56A A65G]
Outgoing: 0.718

Incoming: Item under review: GUUCCGUUGGCGUAAUGGUGACGCGUCUCCCCCCUAAGGAGAAGACUGCGGGUUCGAGUCCCGUACGGAACG [A20G U32C] . Reported yeast fitness?
Outgoing: 0.949

Incoming: Bench note: what yeast fitness did GUUCUGUUAGCGUAAUGGUAACGCGUCUCCCUCCUAAGGAGAAGACUGCGGGUUCGAGUCCCGUACGGAACG [C5U G9A] show?
Outgoing: 0.972

Incoming: Quick check: yeast fitness of GUUCCGUUGGCGUCAUGGUAACGCGUCUCCCUCCUAAGGAGAAGACUGCGGGCUCGAGUCCCGUACGGAACG [A14C U53C] ?
Outgoing: 0.713

Incoming: // yeast fitness lookup, key: GUUCCGUUGCCGUAAUGGUAACGCGUCUCCCUCCUAAGGAGAGGACUGCGGGUUCGAGUCCCGUACGGAACG [G10C A43G]
Outgoing: 0.739

Incoming: Recorded yeast fitness for GUUCCGUUGGCGUAGUGGUAACGCGACUCCCUCCUAAGGAGAAGACUGCGGGUUCGAGUCCCGUACGGAACG [A15G U26A] , please?
Outgoing: 1.04

Incoming: Field request: yeast fitness | item: GUUCCGUUGGCGUAAUGGUAGCGCGUCUCCCUCCUAAGCAGAAGACUGCGGGUUCGAGUCCCGUACGGCACG [A21G G39C A69C]
Outgoing: 0.536

Incoming: Return reported yeast fitness; argument: GUUCCGUUGGUGUCAUGGUAACGCGUCUCCCUCCUAAGGAGAAGACUGCGGGUUCGAGUCCCGUACGGAACG [C11U A14C]
Outgoing: 0.745

Incoming: Report yeast fitness for GUUCCGUUGGCGUAAUGGUAACGCGUCUCCGUCCUAAGGAGAAGACUGCGGGUUCGAGUCCCGUACGGCACG [C31G A69C] please.
Outgoing: 0.907

Incoming: # yeast fitness lookup, item GUUCCGUUGGCGUAAUGGUGACGCGUCUCCCUCCUAAGGGGAAGACUGCGGGUUCGAGUCCCGUACGGAACG [A20G A40G]
Outgoing: 0.888

Incoming: Fill blank: measured yeast fitness of the variant GUUCCGUUGGCGUAAUGGUAACGCGUCUGCCUCCUAAGGCGCAGACUGCGGGUUCGAGUCCCGUCCGGAACG [C29G A40C A42C A65C] is ____.
Outgoing: 0.565

Incoming: I'd like to know its yeast fitness. The variant in question is GUUCCGUUGGCGUAAUGGUAACGCGUCUCCGUGCUAAGGAGAAGACUGCGGGUUCGAGUCCCGUACGGAACG [C31G C33G]
Outgoing: 0.565

Incoming: Which value of yeast fitness has been reported for GUUCCGUUGGCGUAAUGGUAACGCGUCUCCCUCCAAAGGAGAAGACUGCGGAUUCGAGUCCCGUACGGAACG [U35A G52A] in the records?
Outgoing: 0.532

Incoming: Fill in the blank: the reported yeast fitness of GUUCCGUUGGCGUAAUGGUAACGUGUCUCCCUCCUAAGGACCAGACUGCGGGUUCGAGUCCCGUACGGAACG [C24U G41C A42C] is ____.
Outgoing: 0.553

Incoming: Suppose we examine the variant GUUCCGUUGGCGUAAUGGUAACGCGUCUCCCUCCUAAGGUGAAGACUGGGGGUUCGAGUCCCGUACGGAUCG [A40U C49G A70U] ; what yeast fitness value has been reported?
Outgoing: 0.535

Incoming: I have this variant here, GUUCCGUCGGCGUAAUGGAAACGCGUCUCCCUCCUAAGGUGAAGACUGCGGGUUCGAGUCCCGUACGGAACG [U8C U19A A40U] , and I need its recorded yeast fitness.
Outgoing: 0.581

Incoming: For the variant shown here, GUUCCGUUGGCGUAAUGGUAACGCGUCUCACUACUAAGGAGAAGACUGCGGGUUCGAGUCCCGUACGGAACG [C30A C33A] , give the reported yeast fitness.
Outgoing: 0.652

Incoming: Dear colleague, I am looking for the recorded yeast fitness of the following variant: GUUCUGUUGGCGUAAUGGUAACGCGUCUCCCUCCUAUGGAGAAGACUGCGGGUUCGAGUCUCGUACGGAACG [C5U A37U C61U]
Outgoing: 0.623

Incoming: For the variant shown here, GUUCCGUUGGCGUAACGGUAACGCGUCUCCCUCCUAAGGAGAAGACUGCGAGUUCGAGUCCCGUUCGGAACG [U16C G51A A65U] , give the reported yeast fitness.
Outgoing: 0.572

Incoming: Recorded yeast fitness for GUUCCGUUGGCGUAAUGGUAACGCGUCUACCUCCUAUCGCGACGAUUGCGGGUUCGAGUCCCGUACGGAACG [C29A A37U G38C A40C A43C C46U] , please?
Outgoing: 0.599

Incoming: I would be grateful if you could share the reported yeast fitness for GUUCCGUUGGCGUAAUAGUAACGCGUCUCCCUCCUAAGGAGAAGACUGCGGAUUCGAGUCCCGUACGGAACG [G17A G52A] .
Outgoing: 0.549

Incoming: // lookup yeast fitness for GUUCCGUUGGCGUAAUGGUAACGCGUCUCCCUCCUAAGGAGAAGACUGCGGGUUCGAGUCCCGCACGGUACG [U64C A69U]
Outgoing: 1.07

Incoming: Which value of yeast fitness has been reported for GUUCCGUUGGCAUAAUGGUAACGCGUCUCCCUCCUAUGGAGAAGACUGCGGGUUCGAGUCCCGUACGGAACG [G12A A37U] in the records?
Outgoing: 0.653

Incoming: yeast fitness lookup needed for GUUCCGUUGGCGUAAUGGUAACGCGUCUCCCUCCUAAGGGGAAGACUCCGGGUUCGAGUCCCGUACGGAACG [A40G G48C] , thanks.
Outgoing: 0.866

Incoming: Look up yeast fitness: GUUCCGUUGGCGUAAUGGUAACGCGUCUCCCAUCUAAGGAGAAGACAGCGGGUUCGAGUCCCGUACGGAACG [U32A C33U U47A]
Outgoing: 0.54

Incoming: Need yeast fitness, item GUUCCGUUGGCGUAAUGGUAUCGCGUCUCCCUCCUAAGGAGGAGACUGCGGGUUUGAGUCCCGUACGGACCG [A21U A42G C55U A70C]
Outgoing: 0.603

Incoming: I would be grateful if you could share the reported yeast fitness for GUUCCGUUGGUGUAAUGGUAACGCGUCUCCCUCCUAAGGAGACGACUGCGGGUUCGAGUCCCGUACGAAACG [C11U A43C G68A] .
Outgoing: 0.545

Incoming: # query: yeast fitness of entry GUUCCGUUCGCGUAAUGGUAACGUGUCUCGCUCCUAAGGAGAAGACUGCGAGUUCGAGUUCCGUACAGAACG [G9C C24U C30G G51A C60U G67A]
Outgoing: 0.543

Incoming: yeast fitness lookup needed for GCUACGUUGGCGUAAUGGUAACGCGUCCCCCUCCUAAGGAGAACACUGCGGGUUCGAGUCCCGUACGGAACG [U2C C4A U28C G44C] , thanks.
Outgoing: 0.601

Incoming: Could you tell me which yeast fitness is on file for GUUCCGUUGGCGUAAUGGUAACGCGUCACUCUCCUAAGGAGAAGACUGCGGGUUCGAGUCCCGUACGGCACG [U28A C30U A69C] ?
Outgoing: 0.57

Incoming: Return reported yeast fitness; argument: GUUCUGUUGGCGUAAUGGUAACGAGUCUCCCUCCUAAGGAGAAGACAGCGGGUUCGAGUCCCGUACGGAACG [C5U C24A U47A]
Outgoing: 0.656

Incoming: For the variant GUUCCGUUGGCGUAAUGGUAAUGCGUGUCCCUCCUAAGGAGAAGACUGCGGGUUCGAGUCCCGUACGGAACG [C22U C27G] , what yeast fitness is on record?
Outgoing: 0.721

Incoming: Which yeast fitness value belongs to GUUCCGUUGGCGUAAUGGUAACGCGUCCCCCUUCUAAGGAGAAGUCUGCGGGUUCGAGUCCCGUACGGAACG [U28C C33U A45U] ?
Outgoing: 0.578

Incoming: Bench note: what yeast fitness did GUUCCGUUGGCGUUAUGGUAUUGCGUCUCCCUCCUAAGGAGAAGACUGCGGGUUCGAGUCCCGUACGGAACG [A14U A21U C22U] show?
Outgoing: 0.527
